Test system: SK-MEL-2
Method: NCI tumour cell line growth inhibition, 48 h
The source made the active and inactive calls. Rule as the data show it: active = GI50 up to about 1.1 µM and inactive = higher.
Write down the outcome that applies. Available outcomes: TRUE = active, FALSE = inactive

Past entries and their recorded results:
• Nc1nc(N)c(CCCCc2ccccc2)c(N)n1 = FALSE
• CCN(CC)N1C(=O)[N-][N+](CC)(CC)C1=O = FALSE
• C[n+]1c(-c2ccc(/C=N\N3CCN(/N=C/c4ccc(-c5cn6ccccc6[n+]5C)cc4)CC3)cc2)cn2ccccc21 = FALSE
• Cc1cc(N(CCC#N)CCC#N)ccc1/C=C(\NC(=O)/C=C/c1ccccc1)NC(=O)Nc1ccc(Cl)cc1 = FALSE
• O=C(Nc1nc2ncn(CCI)c2c(=O)[nH]1)c1ccccc1 = FALSE

Would you mind telling me which call this test gave COC(=O)C(Cc1c[nH]c2ccccc12)NC(=O)c1ccc(-c2ccc(Cl)cc2Cl)o1 (stereo unspecified) ?
FALSE

###

Test system: Malme-3M
Method: NCI tumour cell line growth inhibition, 48 h
Calls of active or inactive are those of the source. Rule as the data show it: active = GI50 up to about 1.1 µM and inactive = higher.
# GI50 listing for each entry below

Worked cases, GI50 given:
- CN(C)CCCN1c2ccc3ccccc3c2Sc2cccc(Cl)c21: 5.13 µM (inactive)
- CCOC(=O)c1cc(-c2ccc(OC)cc2)c([N+](=O)[O-])n1C: > 10 µM (inactive)
- O=C1CSc2sc(=S)sc2S1: > 100 µM (inactive)

Let's switch to this compound now.
Record lookup: for Malme-3M, what GI50 belongs to Cc1ccc(N2C(=O)C3C=CC(n4[nH]c(=O)n(Cc5ccccc5)c4=O)CC3C2=O)cc1 (configuration not stated) ?
> 100 µM (inactive)

###

Tested on: A549
Method: NCI tumour cell line growth inhibition, 48 h
Active and inactive are the calls of the source. Cut-off read from the data, not from the text of the source: active = GI50 up to about 1.1 µM and inactive = higher.
Measured Parameter: GI50

Worked cases, GI50 given:
* c1ccc(-c2nc(-c3ccccc3SSc3ccccc3-c3nc(-c4ccccc4)nn3-c3ccccc3)n(-c3ccccc3)n2)cc1 | > 100 µM (inactive)
* OCc1nnn2c1CCC2 | > 100 µM (inactive)
* O=C(O)C1(Nc2ccc(Cl)cc2)CCCC1 | > 100 µM (inactive)
* C/C(N)=[N+](/C)[O-] | > 100 µM (inactive)

GI50 for CCOC(=O)N1CCc2cc(OC)c(OC)c3c2c1cc1cc(OC)c(OC)cc13 ?
1.7 µM (inactive)

GI50 for CCOC(=O)c1nc2ccc(C(F)(F)F)cc2nc1Nc1ccc(Cl)c(Cl)c1 ?
67.8 µM (inactive)

GI50 for Cc1ccc(-n2cc(-c3ccc(Cl)cc3)c3c(NN)ncnc32)cc1 ?
3.26 µM (inactive)

###

Tested on: MDA-N
Method: NCI tumour cell line growth inhibition, 48 h
The source made the active and inactive calls. No stated cut-off is given here; in the data, active = GI50 up to about 1.1 µM and inactive = higher.
Measured Parameter: GI50

* O=c1[nH]nc(Cc2ccc(Cl)cc2)n1/N=C\CC/C=N\n1c(Cc2ccc(Cl)cc2)n[nH]c1=O | > 50.9 µM (inactive)
* Cc1c(N2C(=O)CS(=O)(=O)C2c2cccc(Oc3ccccc3)c2)c(=O)n(-c2ccccc2)n1C (stereo unspecified) | 24.8 µM (inactive)
* COc1cc2ncnc(Nc3cccc(Br)c3)c2cc1OC | 7.26 µM (inactive)
* CC1=NN(c2nc(N)nc(/C(C#N)=C\c3ccc(-c4ccc([N+](=O)[O-])cc4)o3)n2)C(C)(C)C1 | > 100 µM (inactive)
* COC1OC(Cn2c(C)nc(Br)c2Br)C(O)C(O)C1O (stereo unspecified) | > 100 µM (inactive)

GI50 for COc1ccc(NC(=S)NNC(=O)c2cc(-c3ccccc3)nc3ccccc23)cc1 ?
4.03 µM (inactive)

GI50 for CN(C)c1cccc(F)c1C(=O)NC(=O)Nc1ccc(Cl)cc1 ?
0.142 µM (active)

GI50 for Cc1cc(=O)oc2cc(OC(=O)N(C)C)c(Cl)cc12 ?
> 100 µM (inactive)

GI50 for CC(C)(C)NC(=S)N/N=C/c1ccccn1 ?
1.58 µM (inactive)

GI50 for C1#Cc2ccccc2OCCOc2ccccc2C#Cc2ccccc2OCCOc2ccccc21 ?
> 100 µM (inactive)

GI50 for CC(=O)C(N1CCCCC1)C(O)(C(F)(F)F)C(F)(F)F (stereo unspecified) ?
> 100 µM (inactive)
